Kd values recorded for ACVR2B
Provide only the numeric value, understood in nM.

Fill in the blank: the reported Kd of "Fc1cc(Cl)ccc1Nc1ccnc2cc(I)ccc12" is ____.
110

Same lookup for "Cc1c(O)cccc1Nc1ccnc2ccc(C(F)(F)F)cc12.Cl" , please.
240

====

system: PAK1; conditions: concentration: 1 μM, replicates: in singlicate; n = 1
parameter: %Inh (%)
Provide only the numeric value, understood in %.

Fill in the blank: the reported %Inh of "Cc1cccc(-c2nc(Nc3ccncc3)c3ccccc3n2)n1" is ____.
0

Same lookup for "Cc1cc(N2Cc3ccccc3C2)nc(Nc2ccc(S(=O)(=O)N3CCOCC3)cc2)n1.Cl" , please.
8

Same lookup for "CS(=O)(=O)c1ccc(-c2c(-c3ncn[nH]3)sc(N3CCOCC3)c2C#N)cc1" , please.
2

Same lookup for "Cc1cc(NCC(c2ccccc2)c2ccccc2)nc(NCc2ccc(C(F)(F)F)cc2)n1" , please.
0

Same lookup for "COc1ccc(C2=C(Nc3cccc(C(=O)O)c3)C(=O)NC2=O)cc1" , please.
0

Same lookup for "COc1ccc(Nc2nccc(-c3cccc(NC(=O)c4cc5cc(F)ccc5[nH]4)c3)n2)cc1" , please.
36

Same lookup for "CCn1c(-c2cccnc2O)nc2cnccc21" , please.
0

Same lookup for "Cc1ccccc1-n1cnc2c(N)ncnc21" , please.
15

Same lookup for "COC(=O)c1c(-c2ccccc2)c2cc(OC)ccc2c(=O)n1Cc1ccccc1" , please.
31

====

pKd: −log10 of the molar value.
pKd values recorded for CAMK1G

Fill in the blank: the reported pKd of "Cc1cc(-c2ccc3c(c2)CC[C@@H](N[C@@H](C)c2ccccc2)C3)cnc1N.Cl" is ____.
< 5.00

Same lookup for "Cc1cccc(-c2nc(C)cc(Nc3ccncc3)n2)n1" , please.
< 5.00

====

tested on: PRKCH; details: concentration: 1 μM, replicates: in singlicate; n = 1
parameter: %Inh (%)
Provide only the numeric value, understood in %.

Fill in the blank: the reported %Inh of Cc1cc(NCC(c2ccccc2)c2ccccc2)nc(NCc2ccc(C(F)(F)F)cc2)n1 [GW497681] is ____.
0

Same lookup for CN1C(=O)C(Nc2ccc(Cl)c(C(=O)O)c2)=C(c2ccc(Cl)cc2)C1=O [SB-404290] , please.
0

Same lookup for Fc1cc(Cl)ccc1Nc1ccnc2cc(I)ccc12 [GW551191] , please.
2

Same lookup for "CC(=O)Nc1nc2cnc(Nc3cc(NC(=O)c4cccc(CCC#N)c4)ccc3C)nc2s1" , please.
0

Same lookup for O=S(=O)(c1ccc(-c2ccnc3[nH]ccc23)cc1)N1CCCC1 [GSK846226] , please.
0

Same lookup for COc1cccc(NC(=O)NC2CCN(c3ccnc(Nc4ccc(F)cc4)n3)C2)c1 (stereo not drawn) [GSK1379721] , please.
0

Same lookup for Cc1ccc(C(=O)Nc2ccc(Nc3ccnc4cc(-c5ccccn5)ccc34)cc2O)cc1.Cl [GW440146] , please.
24

Same lookup for Cc1cccc(-c2nc(Nc3ccncc3)c3ccccc3n2)n1 [GW855857] , please.
0

Same lookup for Cc1ccc(NC(=O)Nc2cc(C(C)(C)C)nn2-c2ccccc2)cc1 [GSK1014915] , please.
5

====

Kindly supply the reported %Inh values for the records listed here.
tested on: TSSK1B; settings: concentration: 1 μM, replicates: in singlicate; n = 1
Provide only the numeric value, understood in %.

Fill in the blank: the reported %Inh of "Cn1ccc2ncnc(Oc3ccc(NC(=O)Nc4ccccc4)cc3)c21" is ____.
0

Same lookup for O=C(Nc1n[nH]c2nc(-c3nccs3)c(Br)cc12)C1CCCC1 [SB-742609] , please.
8

Same lookup for Nc1ncnc2[nH]c(-c3ccccc3)nc12 [AH5015] , please.
9

Same lookup for "Cn1ccc2ncnc(Oc3ccc(Nc4nc5ccccc5[nH]4)cc3)c21" , please.
0

Same lookup for "NC(=O)c1nnc2ccccc2c1N" , please.
5

Same lookup for Cc1nnc(-c2ccc3occ(-c4ccc(S(C)=O)cc4)c3c2)[nH]1 (stereo not shown) , please.
0

Same lookup for C[C@@H]1CCCCN1c1cc(-c2ccc3c(N)n[nH]c3c2)nc(N)n1 [GSK2258759] , please.
0

Same lookup for COc1ccc(Nc2nccc(-c3cccc(NC(=O)c4cc5cc(F)ccc5[nH]4)c3)n2)cc1 [GSK1229782] , please.
22

Same lookup for COc1ccc2nc(-c3cccc(C)n3)nc(Nc3ccncc3)c2c1 [GSK204919] , please.
0

Same lookup for Cc1cccc(-c2nc(Nc3cccc(C(N)=O)c3)c3ccccc3n2)n1 [GW876019] , please.
10

====

system: RIOK2
parameter: pKd
Please keep in mind that pKd is minus log10 of the molar concentration; only the number is needed.

Fill in the blank: the reported pKd of "O=S(=O)(c1ccc(-c2ccnc3[nH]ccc23)cc1)N1CCCC1" is ____.
6.02

Same lookup for "Clc1cc(Cl)cc(Nc2ccnc(Nc3cc(Cl)cc(Cl)c3)n2)c1" , please.
6.82

====

test system: MYO3A; conditions: concentration: 1 μM, replicates: in singlicate; n = 1
parameter: %Inh (%)
Provide only the numeric value, understood in %.

Please tell me: %Inh of "COc1ccccc1-c1ccc2c(NC(=O)C3CC3)n[nH]c2n1" , system MYO3A?
0

Same lookup for "COc1cccc(-c2cc(-c3c[nH]nc3-c3ccccn3)ccn2)c1" , please.
8

Same lookup for "O=c1cc(N2CCOCC2)nc2n(Cc3cccc(Cl)c3Cl)ccn12" , please.
0

Same lookup for "Cl.Oc1ccc(-c2nc(-c3ccccc3)[nH]c2-c2ccncc2)cc1" , please.
46

Same lookup for "Cc1cccc(-c2nc(Nc3cccc(C(N)=O)c3)c3ccccc3n2)n1" , please.
11

Same lookup for "CC(C)(C)c1ccc(C(=O)Nc2cn3cc(-c4cccnc4)ccc3n2)cc1" , please.
8

Same lookup for "Cc1ccc(-c2cc(-c3c[nH]nc3-c3ccccn3)ccn2)cc1" , please.
46

Same lookup for "Cl.c1ccc(-c2n[nH]cc2-c2ccnc(-c3ccc(CN4CCOCC4)cc3)c2)nc1" , please.
0

Same lookup for "C[C@@H]1CCCCN1c1cc(-c2ccc3c(N)n[nH]c3c2)nc(N)n1" , please.
30

====

tested on: STK35; conditions: concentration: 1 μM, replicates: in singlicate; n = 1
Kindly supply the reported %Inh values for the records listed here.
Provide only the numeric value, understood in %.

Fill in the blank: the reported %Inh of COc1cc(Nc2nccc(N3CCC(NC(=O)Nc4cc(C)ccc4C)C3)n2)cc(OC)c1OC (stereo not shown) [GSK1379762] is ____.
3

Same lookup for CCCc1ccc(S(=O)(=O)NC2CCN(c3ccnc(Nc4ccc(F)cc4)n3)C2)cc1 (stereo not shown) [GSK1379715] , please.
0

Same lookup for Cc1nnc(-c2ccc3occ(-c4ccc(S(C)=O)cc4)c3c2)[nH]1 (stereo not shown) , please.
22

Same lookup for Cc1ccccc1-n1cnc2c(N)ncnc21 [SKF-97510] , please.
0

Same lookup for Cc1cc(NCC(c2ccccc2)c2ccccc2)nc(NCc2ccc(C(F)(F)F)cc2)n1 [GW497681] , please.
0

Same lookup for COc1ccc(CNC(=O)NC2CCN(c3ccnc(Nc4cc(OC)c(OC)c(OC)c4)n3)C2)cc1 (stereo not shown) [GSK1379748] , please.
0

Same lookup for CCn1c(-c2cccnc2O)nc2cnccc21 [SB-736715] , please.
0

Same lookup for CS(=O)(=O)c1ccc(-c2nc3n(c2-c2ccncc2)CCC3)cc1 [SKF-105942] , please.
0

Same lookup for "CC(C)(C)c1ccc(C(=O)Nc2cn3cc(Cl)ccc3n2)cc1" , please.
0

Same lookup for Clc1cc(Cl)cc(Nc2ccnc(Nc3cc(Cl)cc(Cl)c3)n2)c1 [GSK175726] , please.
0

Same lookup for O=c1cc(N2CCOCC2)nc2n(Cc3cccc(Cl)c3Cl)ccn12 [GSK2286295] , please.
0

Same lookup for "CS(=O)(=O)c1ccc(-c2c(-c3ncn[nH]3)sc(N3CCOCC3)c2C#N)cc1" , please.
0

Same lookup for Cl.NC(=O)c1cccc(Nc2nccc(Nc3ccc(Oc4cccc(Cl)c4)c(Cl)c3)n2)c1 [GW659008] , please.
0

Same lookup for "CC(=O)Nc1nc2cnc(Nc3cc(NC(=O)c4cccc(CCC#N)c4)ccc3C)nc2s1" , please.
0

Same lookup for "COC(=O)c1c(-c2ccccc2)c2cc(OC)ccc2c(=O)n1Cc1ccccc1" , please.
3

Same lookup for Fc1cc(Cl)ccc1Nc1ccnc2cc(I)ccc12 [GW551191] , please.
57

Same lookup for Cc1cccc(-c2cc(Nc3ccncc3)c3ccccc3n2)n1 [GSK223675] , please.
0

Same lookup for C[C@@H]1CCCCN1c1cc(-c2ccc3c(N)n[nH]c3c2)nc(N)n1 [GSK2258759] , please.
0

Same lookup for O=C(Nc1n[nH]c2nc(-c3nccs3)c(Br)cc12)C1CCCC1 [SB-742609] , please.
0
